Inhibition values for the compounds below.
Tested on: HepG2
Test: GSK_TCMDC: Percent inhibition of human HepG2 cell line. Test compounds present at 10uM.
Type: functional
Respond with the bare value in %.

Asked: Missing value: Inhibition, HepG2, entry `CN1CCCc2ccc(NC(=O)c3cnc(-c4ccccc4)cn3)cc21` . Fill in?
Given back: 24

Asked: Continue with `NC1=NC2(CCCCC2)N(OCCCCCCc2ccccc2)C(N)=N1`
Given back: 73

Asked: Continue with `CC(C)(C)Nc1cc(C2CC2)nc(-c2ccccn2)n1`
Given back: 0

Asked: Continue with `O=C(Nc1ccccc1)c1c[nH]cn1`
Given back: 0

Asked: Continue with `NC(=O)c1c(Cl)nc2ccccc2c1Cl`
Given back: 2

Asked: Continue with `COc1ccc2c(N/N=C/c3ccccc3[N+](=O)[O-])ccnc2c1`
Given back: 98

Next compound, please.
Asked: Missing value: Inhibition, HepG2, entry CCCCC(O)c1cc(O)c2c(c1)OC(C)(C)CC2C1=CCN(Cc2ccc3ccccc3c2)CC1 (stereo not given) . Fill in?
Given back: 7
